test system: biotinyl-Val-oxazolone; experiment: self-aminoacylation, catalytic enhancement (BVO) (fold over background); higher = more active; k-Seq, kA / k0A0; sequences stand for … in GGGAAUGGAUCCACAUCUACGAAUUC…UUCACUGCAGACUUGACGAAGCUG
Fewer inactive variants are shown than the library holds.
self-aminoacylation overview
Just the number.

Look over these answered cases.
In [3]: df
Out[3]:
                            sequence_string    measurement_label  observed_result
0  AAGUUUGCUAACAGUCGCAAU [Fam3.1 aminoacylation ribozyme variant]  self-aminoacylation            0.959
1  AUCCACCUUGGUCAUCGGGUG [Fam2.2 aminoacylation ribozyme variant]  self-aminoacylation             5.35
2  GUUACCCUGGUCUUCGAGUGA [Fam2.1 aminoacylation ribozyme variant]  self-aminoacylation             5.01

Documented self-aminoacylation of CGUACCCUGGUCAUCGAGUGA [Fam2.1 aminoacylation ribozyme variant] : 5.62

---

test system: biotinyl-Phe-oxazolone; experiment: self-aminoacylation, catalytic enhancement (BFO) (fold over background); higher = more active; k-Seq, kA / k0A0; sequences stand for … in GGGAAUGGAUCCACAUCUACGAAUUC…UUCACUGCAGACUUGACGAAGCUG
This sample holds only a part of the variants without activity.
self-aminoacylation overview
Just the number.

Look over these answered cases.
>>> print(df.to_string())
                            sequence_string  observed_result
0  CUACUUCAAACAAUCGGUCCU [Fam1A.1 aminoacylation ribozyme variant]              6.8
1  CUACUUCAAACAAUCAGUCUG [Fam1A.1 aminoacylation ribozyme variant]             27.8
2  ACUACCCUGGUGAUCGAGUGA [Fam2.1 aminoacylation ribozyme variant]               28
3  AUUCACCUAGGUCUUCGCGUG [Fam2.2 aminoacylation ribozyme variant]             16.6
4  CUUCAUCAAACAAUCGGUCUG [Fam1A.1 aminoacylation ribozyme variant]             2.05
5  AUUACCCAGGUCAUCGCGUGA [Fam2.1 aminoacylation ribozyme variant]              156

Documented self-aminoacylation of CGACACUUCAAACAAUCGGUC [Fam1B.1 aminoacylation ribozyme variant] : 22.9

Documented self-aminoacylation of AUCACCCUGGUCAUAGAGUGA [Fam2.1 aminoacylation ribozyme variant] : 85.7

Documented self-aminoacylation of GCACACUUCUAGCAAUCGGUC [Fam1B.1 aminoacylation ribozyme variant] : 1.34

Documented self-aminoacylation of CUACUUCAAAAAAUCGGCCUG [Fam1A.1 aminoacylation ribozyme variant] : 15.3

---

system: biotinyl-Leu-oxazolone; assay: self-aminoacylation, catalytic enhancement (BLO) (fold over background); higher = more active; k-Seq, kA / k0A0; sequences stand for … in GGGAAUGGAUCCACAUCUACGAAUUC…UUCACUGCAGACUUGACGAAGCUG
Fewer inactive variants are shown than the library holds.
Answer 0.0 if self-aminoacylation is under 2, and 1.0 if it is 2 or more.

# count of solved cases: 6
In [3]: df
Out[3]:
                            sequence_string  assigned_category
0  GUUACCAUGGUCAUCGAGUGA [Fam2.1 aminoacylation ribozyme variant]                1.0
1  AUUCCCCUAGUUCAUCGGGUG [Fam2.2 aminoacylation ribozyme variant]                1.0
2  AUGUUUGCUAAAAGUCGCAAG [Fam3.1 aminoacylation ribozyme variant]                0.0
3  GCACUCUUCAAGCAAUCGGUC [Fam1B.1 aminoacylation ribozyme variant]                1.0
4  AUUGACCUAGGGCAUCGGGUG [Fam2.2 aminoacylation ribozyme variant]                1.0
5  AAGUUUGUUAAUAGACGCAAG [Fam3.1 aminoacylation ribozyme variant]                0.0

In: Identify whether the reported self-aminoacylation of the following sequence is 2 or greater: CUACCUCAAACAUUCGGUCUG [Fam1A.1 aminoacylation ribozyme variant]
Out: 1.0
